system: SK-MEL-2 melanoma; test: NCI tumour cell line growth inhibition, 48 h
Where a SMILES comes first, the peptide text is derived from it. The star is where a group is joined. Boc = CC(C)(C)OC(=O)*; OSu = O=C1CCC(=O)N1O*
The reader will find reported TGI values listed item by item below.

{"compound": "CCCCc1ccc(Nc2nc3c(ncn3C3CC(O)C(CN=[N+]=[N-])O3)c(=O)[nH]2)cc1 (stereo unspecified)", "TGI": "> 100 µM"}
{"compound": "C=C1C(=O)O[C@H]2C[C@@H]1CC/C(C)=C/CC/C(C)=C/CC[C@H]2C", "TGI": "> 61.9 µM"}
{"compound": "CN(C)CCNC(=O)c1cccc2c(NCCN(C)C)c3ccccc3nc12", "TGI": "17.6 µM"}
{"compound": "CC(=O)[O][Ga]([Cl])[O]C(C)=O", "TGI": "> 100 µM"}
{"compound": "O=C1c2ccccc2-c2c1c1c(=O)[nH]c3ccccc3c1n2Cc1ccccc1", "TGI": "> 100 µM"}
{"compound": "COc1ccc2nc3ccc(OC)cc3c(SCCO)c2c1", "TGI": "> 84 µM"}
{"compound": "CC(NC(=O)C(NC(=O)OC(C)(C)C)C(C)C)C(=O)NCC(=O)ON1C(=O)CCC1=O (stereo not drawn) (Boc-Val-Ala-Gly-OSu; configuration not given here)", "TGI": "> 100 µM"}
{"compound": "Cc1cnc2sn(-c3ccc(Oc4ccccc4)cc3)c(=O)c2c1", "TGI": "> 100 µM"}
{"compound": "Cc1[nH]c2c(c1C)S(=O)(=O)c1cc3ccccc3nc1N2", "TGI": "> 100 µM"}
{"compound": "Cc1[nH]c2ccccc2c1C(=O)CC1(O)C(=O)Nc2ccccc21 (stereo unspecified)", "TGI": "> 100 µM"}
{"compound": "COc1ccc(Nc2nc3ccc(C(F)(F)F)cc3nc2-c2ccccc2)cc1OC", "TGI": "> 100 µM"}
{"compound": "O=C(Nc1cccc(-n2ccc3c(NC(=O)c4ccccc4)nccc32)c1)Nc1cc(C(F)(F)F)cc(C(F)(F)F)c1", "TGI": "4.68 µM"}
{"compound": "CC[C@H](O)[C@H](C)C=C1SCCCS1", "TGI": "> 100 µM"}
{"compound": "CC[N+](CC)=c1sc2c(s1)C(c1ccc(Cl)cc1)Oc1ccc(Cl)cc1-2 (stereo unspecified)", "TGI": "2.81 µM"}
{"compound": "COc1ccc(-c2cn[nH]c2-c2cc(OC)c3c(c2)OCO3)cc1", "TGI": "17.8 µM"}
{"compound": "CC(C)CC(NC(=O)c1cccc(O)c1O)C(=O)NCc1cc(CNC(=O)C(CC(C)C)NC(=O)c2cccc(O)c2O)cc(CNC(=O)C(CC(C)C)NC(=O)c2cccc(O)c2O)c1 (stereo unspecified)", "TGI": "29 µM"}
{"compound": "COC(=O)CCC(=O)NC1=C(NCc2ccccc2)C(=O)c2ccccc2C1=O", "TGI": "67.1 µM"}
{"compound": "Cc1cc(=O)oc2cc(OC(=O)N(C)C)c(Cl)cc12", "TGI": "> 100 µM"}
{"compound": "O=C(/C=C/c1ccc(O)cc1)c1ccc2c(c1)OCO2", "TGI": "62.4 µM"}
{"compound": "Nn1c(COc2cccc(OCc3n[nH]c(=S)n3N)c2)n[nH]c1=S", "TGI": "> 100 µM"}
{"compound": "CC(O)c1cc2c(s1)C(=O)c1sccc1C2=O (stereo unspecified)", "TGI": "0.215 µM"}

----------
The reader will find reported TGI values listed item by item below.
system: SR leukemia; test: NCI tumour cell line growth inhibition, 48 h
quantity-name: TGI

{"compound": "C[n+]1c(-c2ccc(/C=N/NC(=N)N/N=C/c3ccc(-c4cn5cc(Cl)ccc5[n+]4C)cc3)cc2)cn2cc(Cl)ccc21", "measured-on": "SR leukemia", "result": "> 100 µM"}
{"compound": "BrCCCCCOc1ccc(-c2c3ccccc3c(-c3ccc(OCCCCCBr)cc3)c3ccccc23)cc1", "measured-on": "SR leukemia", "result": "> 100 µM"}
{"compound": "O=C(c1ccccc1)N1CCN(C(=S)N(C(=O)c2ccccc2)c2ccccc2)C1=S", "measured-on": "SR leukemia", "result": "> 100 µM"}
{"compound": "CO[C@H]1/C=C/O[C@@]2(C)Oc3c(C)c(O)c4c(c3C2=O)C(=O)C(/C=N/N(c2ccccc2)c2ccccc2)=C(NC(=O)/C(C)=C\\C=C\\[C@H](C)[C@H](O)[C@@H](C)[C@@H](O)[C@@H](C)[C@H](OC(C)=O)[C@@H]1C)C4=O", "measured-on": "SR leukemia", "result": "5.77 µM"}
{"compound": "O=C(/C=C/c1ccc(O)cc1)c1ccc2c(c1)OCO2", "measured-on": "SR leukemia", "result": "33.6 µM"}
{"compound": "CCCCCCCCOC1C(O)C(O)C(O)C(O)C12CO2 (configuration not stated)", "measured-on": "SR leukemia", "result": "> 100 µM"}
{"compound": "O=C1CC2(c3ccccc3)ON=C(c3ccccc3)N2c2ccccc2N1 (configuration not stated)", "measured-on": "SR leukemia", "result": "> 100 µM"}

----------
test system: A549 NSCLC; assay: NCI tumour cell line growth inhibition, 48 h

{"compound": "FC(F)c1nc2ccccc2n1-c1nc(N2CCOCC2)nc(N2CCOCC2)n1", "measured-on": "A549 NSCLC", "TGI": "> 100 µM"}
{"compound": "COc1ccc(Nc2nc3ccc(C(F)(F)F)cc3nc2-c2ccccc2)cc1OC", "measured-on": "A549 NSCLC", "TGI": "> 100 µM"}
{"compound": "O=C(CO[N+](=O)[O-])Nc1ccc(C(=O)/C=C/c2ccc(Cl)cc2)cc1", "measured-on": "A549 NSCLC", "TGI": "20.6 µM"}
{"compound": "CCOP(=O)(OCC)/C(C#N)=C/c1cn(C)cn1", "measured-on": "A549 NSCLC", "TGI": "> 100 µM"}
{"compound": "CCSc1sc(=Nc2ccc(N=c3sc(C)c(SC)s3)cc2)sc1-c1ccc(C)cc1", "measured-on": "A549 NSCLC", "TGI": "> 100 µM"}
{"compound": "CCC[CH2][Sn]1([CH2]CCC)[O]CC(Cc2ccccc2)[O]1 (stereo unspecified)", "measured-on": "A549 NSCLC", "TGI": "28.9 µM"}
{"compound": "CCOC(=O)c1cc(-c2cc(OC)c(OC)c([N+](=O)[O-])c2)c([N+](=O)[O-])n1C", "measured-on": "A549 NSCLC", "TGI": "> 10 µM"}
{"compound": "O=C1CCC2(CC1CC(Sc1ccccc1)Sc1ccccc1)OCCO2 (stereo unspecified)", "measured-on": "A549 NSCLC", "TGI": "> 100 µM"}
{"compound": "C=C(C)C(=O)O[C@H]1C[C@@]23O[C@@H]2CCC(=C[C@H]2OC(=O)C(=C)[C@H]12)COC3O (stereo partly specified)", "measured-on": "A549 NSCLC", "TGI": "> 100 µM"}
{"compound": "COC(=O)C1C/C(=C/N(C)C)C(=S)N1 (stereo unspecified)", "measured-on": "A549 NSCLC", "TGI": "> 100 µM"}
{"compound": "COc1ccc(S(=O)(=O)Nc2ccccc2C(=O)O)cc1", "measured-on": "A549 NSCLC", "TGI": "> 100 µM"}

----------
The reader will find reported TGI values listed item by item below.
test system: SK-MEL-28 melanoma; experiment: NCI tumour cell line growth inhibition, 48 h
quantity-name: TGI

{"compound": "C=C(COC(C)=O)CC(OC(C)=O)c1ccccc1 (stereo not drawn)", "measured-on": "SK-MEL-28 melanoma", "result": "> 100 µM"}
{"compound": "C=C(c1ccc2nc(NC(=O)OC)[nH]c2c1)c1cccs1", "measured-on": "SK-MEL-28 melanoma", "result": "> 100 µM"}
{"compound": "CCCCC(=O)NS(=NC(=O)c1ccccc1)C(Cl)(Cl)Cl (stereo not drawn)", "measured-on": "SK-MEL-28 melanoma", "result": "> 100 µM"}

----------
The reader will find reported GI50 values listed item by item below.
tested on: T-47D breast; test: NCI tumour cell line growth inhibition, 48 h
quantity-name: GI50

{"molecule": "Cc1nc(SCC(=O)Nc2nc(-c3ccc(Cl)cc3)cs2)n(Nc2ccccc2)c1C", "measured-on": "T-47D breast", "result": "1400 nM"}
{"molecule": "CCN(Cc1cccc(F)c1)c1ccc(CO)c(Cl)c1", "measured-on": "T-47D breast", "result": "148 nM"}
{"molecule": "COC(=O)c1c2c(c[n+]([O-])c1C)C(=O)C=CC2=O", "measured-on": "T-47D breast", "result": "2330 nM"}
{"molecule": "CO[C@H]1/C=C/O[C@@]2(C)Oc3c(C)c(O)c4c(c3C2=O)C(=O)C(/C=N/N(c2ccccc2)c2ccccc2)=C(NC(=O)/C(C)=C\\C=C\\[C@H](C)[C@H](O)[C@@H](C)[C@@H](O)[C@@H](C)[C@H](OC(C)=O)[C@@H]1C)C4=O", "measured-on": "T-47D breast", "result": "1840 nM"}
{"molecule": "COc1cc(-c2cc3ncccc3c3nc(N)c4cccnc4c23)cc(OC)c1OC", "measured-on": "T-47D breast", "result": "824 nM"}
{"molecule": "COc1ccc(C(=O)/C=C/c2ccc(C)cc2)cc1OC", "measured-on": "T-47D breast", "result": "3050 nM"}
{"molecule": "CCc1cccc(C)c1NC(=O)c1sc2nc3c(cc2c1N)CCCCC3", "measured-on": "T-47D breast", "result": "4650 nM"}
{"molecule": "COc1cc(OC)cc(N(CCNC(C)C)c2ccc3ncc(-c4cnn(C)c4)nc3c2)c1", "measured-on": "T-47D breast", "result": "12700 nM"}
{"molecule": "Cc1ccc(-c2csc(/N=C3\\C(=O)Nc4ccccc43)n2)cc1", "measured-on": "T-47D breast", "result": "1360 nM"}
{"molecule": "C#CCOc1cccc(-c2ncnc3cc(NC(=O)CCl)ccc23)c1", "measured-on": "T-47D breast", "result": "1690 nM"}
{"molecule": "CCOc1ccc2nc(SCc3nc4n(n3)S(=O)(=O)c3ccccc3N4C)sc2c1", "measured-on": "T-47D breast", "result": "81600 nM"}
{"molecule": "Cc1ccc(C)c2c1C(O)(C#Cc1ccccc1)c1ccccc1C2(O)C#Cc1ccccc1 (configuration not stated)", "measured-on": "T-47D breast", "result": "2000 nM"}
